Collected Ki values appear next to each entry.
target: purified human plasma kallikrein (Homo sapiens (Human), UniProt P03952); experiment: biochemical; type: biochemical; conditions: read-out: Plasma Kallikrein Ki
Sequence (P03952 whole entry, looked up): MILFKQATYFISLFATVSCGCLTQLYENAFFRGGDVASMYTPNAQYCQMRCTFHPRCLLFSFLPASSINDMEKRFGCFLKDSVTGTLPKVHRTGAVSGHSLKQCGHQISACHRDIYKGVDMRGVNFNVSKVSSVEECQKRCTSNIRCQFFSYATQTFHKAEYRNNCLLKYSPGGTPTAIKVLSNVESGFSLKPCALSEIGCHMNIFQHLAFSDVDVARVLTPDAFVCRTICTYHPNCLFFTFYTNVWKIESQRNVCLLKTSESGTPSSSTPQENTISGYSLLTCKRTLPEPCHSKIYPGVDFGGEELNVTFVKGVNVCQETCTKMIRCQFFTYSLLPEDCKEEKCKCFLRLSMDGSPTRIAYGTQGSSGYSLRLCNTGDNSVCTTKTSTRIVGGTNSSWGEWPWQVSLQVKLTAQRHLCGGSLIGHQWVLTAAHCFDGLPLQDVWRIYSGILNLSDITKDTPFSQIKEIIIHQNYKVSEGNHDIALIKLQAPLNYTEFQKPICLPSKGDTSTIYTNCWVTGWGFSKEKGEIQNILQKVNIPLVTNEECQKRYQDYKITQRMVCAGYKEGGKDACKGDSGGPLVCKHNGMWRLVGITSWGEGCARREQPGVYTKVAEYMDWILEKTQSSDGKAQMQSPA
Sequence (P03952 whole entry partner, looked up): as the sequence (P03952 whole entry, looked up) above
Where a name gives a salt, the structure may show the parent alone.
Answer with the number, then the unit.

stdin: Consider the compound shown here: C[C@@H]1CCC[C@H](N2CCC(c3c(Br)ccc(Cl)c3F)=CC2=O)c2cc(ccn2)-c2ccc(C(N)=O)cc2NC1=O [Example 29, TFA salt] What is its recorded Ki?
stdout: 3 nM

***
stdin: Consider the compound shown here: C[C@@H]1CCC[C@H](N2CCC(c3c(C#N)ccc(Cl)c3F)=CC2=O)c2cc(ccn2)-c2ccccc2NC1=O [Example 49, TFA salt] What is its recorded Ki?
stdout: 3 nM

stdin: Consider the compound shown here: COC(=O)Nc1ccc2c(c1)NC(=O)[C@H](C)CCC[C@H](N1CCC(c3c(C#N)ccc4c(N)noc34)=CC1=O)c1cc-2cc(OC)n1 [Example 9, TFA salt] What is its recorded Ki?
stdout: 46 nM

stdin: Consider the compound shown here: C[C@@H]1CCC[C@H](n2ccc(-c3c(F)ccc(Cl)c3F)cc2=O)c2cc(ccn2)-c2c(F)cccc2NC1=O [Example 200, TFA salt] What is its recorded Ki?
stdout: 28.7 nM

stdin: Consider the compound shown here: C[C@@H]1CCC[C@H](N2CCC(c3c(N)ccc(Cl)c3F)=CC2=O)c2cc(ccn2)-c2ccccc2NC1=O [Example 66, TFA salt] What is its recorded Ki?
stdout: 45 nM

stdin: Consider the compound shown here: C[C@@H]1CCC[C@H](N2CCC(c3c(F)ccc(Cl)c3F)=CC2=O)c2cc(ccn2)-c2cc3ccc(=O)[nH]c3cc2NC1=O [Example 81, TFA salt] What is its recorded Ki?
stdout: 1 nM

----------
molecular target: purified human plasma kallikrein (Homo sapiens (Human)); test: biochemical; type: biochemical; conditions: read-out: Plasma Kallikrein Ki
Counter-ions that a name gives are not always drawn.
Parameter: Ki (nM)
Please give a number only; it is taken to be in nM.

Example cases with answers are listed next.
stdin: Consider the compound shown here: CC1CCC[C@H](N2CCC(c3c(C(F)(F)F)ccc(Cl)c3F)=CC2=O)c2cc(ccn2)-c2ccc(C(=O)O)cc2NC1=O (stereo partly drawn) [Example 106, TFA salt] What is its recorded Ki?
stdout: 890

stdin: Consider the compound shown here: `C[C@@H]1CCC[C@H](N2CCC(c3c(C#N)ccc(Cl)c3F)=CC2=O)c2cc(ccn2)-c2cc(F)ccc2NC1=O` What is its recorded Ki?
stdout: 2.27

stdin: Consider the compound shown here: CC(=O)N[C@@H]1C(Nc2ccc3c(c2)NC(=O)[C@H](C)CCC[C@H](N2CCC(c4c(F)ccc(Cl)c4F)=CC2=O)c2cc-3ccn2)O[C@H](CO)[C@@H](O)[C@@H]1O (stereo partly drawn) What is its recorded Ki?
stdout: 26.5

stdin: Consider the compound shown here: Cc1[nH]c2cc3c(cc2c1C(=O)O)-c1ccnc(c1)[C@@H](N1CCC(c2c(F)ccc(Cl)c2F)=CC1=O)CCC[C@@H](C)C(=O)N3 [Example 83, TFA salt] What is its recorded Ki?
stdout: 7

stdin: Consider the compound shown here: Cc1nnc(Nc2ccc3c(c2)NC(=O)[C@H](C)CCC[C@H](N2CCC(c4c(F)ccc(Cl)c4F)=CC2=O)c2ccnc-3c2)o1 [Example 37, TFA salt] What is its recorded Ki?
stdout: 1

Field: next compound
stdin: Consider the compound shown here: COC(=O)Nc1ccc2c(c1)NC(=O)[C@H](C)CCC[C@H](N1CCC(C3CCCC(C)C3)=CC1=O)c1cc-2ccn1 (stereo partly drawn) What is its recorded Ki?
stdout: 58.9

----------
Collected Ki values appear next to each entry.
biological target: purified human plasma kallikrein (Homo sapiens (Human), UniProt P03952); test: biochemical; assay type: biochemical; settings: read-out: Plasma Kallikrein Ki
Counter-ions that a name gives are not always drawn.
Please give a number only; it is taken to be in nM.

stdin: Consider the molecule shown here: C[C@@H]1CCC[C@H](N2CCC(c3c(C4CC4)ccc(Cl)c3F)=CC2=O)c2cc(ccn2)-c2ccccc2NC1=O [Example 52, TFA salt] What is its recorded Ki?
stdout: 193

stdin: Consider the molecule shown here: C[C@@H]1CCC[C@H](N2CCC(c3c(F)ccc(Cl)c3F)=CC2=O)c2cc(ccn2)-c2cc(Cl)c(O)cc2NC1=O [Example 19, TFA salt] What is its recorded Ki?
stdout: 52

Field: next molecule
stdin: Consider the molecule shown here: C[C@@H]1CCC[C@H](N2CCC(c3cccc(Cl)c3F)=CC2=O)c2cc(ccn2)-c2ccccc2NC1=O [Example 47, TFA salt] What is its recorded Ki?
stdout: 66

----------
target: purified human plasma kallikrein (Homo sapiens (Human), UniProt P03952); assay: biochemical; format: biochemical; conditions: read-out: Plasma Kallikrein Ki
Where a name gives a salt, the structure may show the parent alone.
Collected Ki values appear next to each entry.
Please give a number only; it is taken to be in nM.

Example cases with answers are listed next.
stdin: Consider the compound shown here: COC(=O)Nc1ccc2c(c1)NC(=O)[C@H](C)CCC[C@H](N1CCC(c3c(F)cccc3C#N)=CC1=O)c1cc-2ccn1 [Example 4, TFA salt] What is its recorded Ki?
stdout: 1

stdin: Consider the compound shown here: `COC(=O)Nc1ccc2c(c1)NC(=O)[C@H](C)CCC[C@H](N1CCC(c3c(Br)ccc(Cl)c3F)=CC1=O)c1cccc-2c1` What is its recorded Ki?
stdout: 21.6

stdin: Consider the compound shown here: Cc1[nH]c2nc1-c1ccccc1NC(=O)[C@H](C)CCC[C@@H]2N1CCC(c2c(F)ccc(Cl)c2F)=CC1=O [Example 220, TFA salt] What is its recorded Ki?
stdout: 50.2

stdin: Consider the compound shown here: COC(=O)Nc1ccc2c(c1)NC(=O)[C@H](C)CC(=O)C[C@H](N1CCC(c3c(F)ccc(Cl)c3F)=CC1=O)c1cc-2ccn1 [Example 22, TFA salt] What is its recorded Ki?
stdout: 352

stdin: Consider the compound shown here: `COC(=O)Nc1ccc2c(c1)NC(=O)[C@H](C)C(=O)CC[C@H](N1CCC(c3c(F)ccc(Cl)c3F)=CC1=O)c1cc-2ccn1` What is its recorded Ki?
stdout: 118

***
stdin: Consider the compound shown here: `C[C@@H]1CCC[C@H](N2CCC(c3c(Br)ccc(Cl)c3F)=CC2=O)c2cc(ccn2)-c2cc(F)ccc2NC1=O` What is its recorded Ki?
stdout: 7.51

stdin: Consider the compound shown here: C[C@@H]1CCC[C@H](N2CCC(c3c(F)ccc(Cl)c3F)=CC2=O)c2cc(cc[n+]2[O-])-c2ccc(N)cc2NC1=O [Example 70, TFA salt] What is its recorded Ki?
stdout: 18

stdin: Consider the compound shown here: `COC(=O)Nc1ccc2c(c1)NC(=O)[C@H](C)CCC[C@H](N1CCC(c3c(-c4c[nH]nn4)ccc(Cl)c3F)=CC1=O)c1cc-2ccn1` What is its recorded Ki?
stdout: 14.3

stdin: Consider the compound shown here: CC1CCC[C@H](N2CCC(c3c(F)ccc(Cl)c3F)=CC2=O)c2cc(ccn2)-c2ccc(C(=O)O)cc2NC1=O (stereo partly drawn) [Example 105, TFA salt] What is its recorded Ki?
stdout: 3920

stdin: Consider the compound shown here: COC(=O)Nc1ccc2c(c1)NC(=O)[C@H](C)CCC[C@H](N1CCC(c3ccnc(N)c3)=CC1=O)c1cc-2ccn1 [Example 154, TFA salt] What is its recorded Ki?
stdout: 118

stdin: Consider the compound shown here: `COC(=O)c1ccc2c(c1)-c1cccc(c1)[C@H](N1CCC(c3c(F)ccc(Cl)c3F)=CC1=O)CCC[C@@H](C)C(=O)N2` What is its recorded Ki?
stdout: 9470

stdin: Consider the compound shown here: C[C@@H]1CCC[C@H](N2CCC(c3c(F)ccc(Cl)c3F)=CC2=O)c2cc(ccn2)-c2ccc(Nc3cccnn3)cc2NC1=O [Example 196, TFA salt] What is its recorded Ki?
stdout: 1.52

stdin: Consider the compound shown here: C[C@@H]1CCC[C@H](N2CCC(c3c(-c4cccnc4)ccc(Cl)c3F)=CC2=O)c2cc(ccn2)-c2ccccc2NC1=O [Example 58, TFA salt] What is its recorded Ki?
stdout: 179

stdin: Consider the compound shown here: `C[C@@H]1CCC[C@H](N2CCC(c3c(F)ccc(Cl)c3F)=CC2=O)c2cc(ccn2)-c2cc(C#N)ccc2NC1=O` What is its recorded Ki?
stdout: 31.7

stdin: Consider the compound shown here: COC(=O)Nc1ccc2c(c1)NC(=O)[C@H](C)CCC[C@H](N1CCC(C3CCNCC3)=CC1=O)c1cc-2ccn1 [Example 155, TFA salt] What is its recorded Ki?
stdout: 199

stdin: Consider the compound shown here: C[C@@H]1CCC[C@H](N2CCC(c3c(F)ccc(Cl)c3F)=CC2=O)c2cc(ccn2)-c2ccc(Nc3ncccn3)cc2NC1=O [Example 16, TFA salt] What is its recorded Ki?
stdout: 1

----------
target: purified human plasma kallikrein (Homo sapiens (Human), UniProt P03952); assay: biochemical; format: biochemical; conditions: read-out: Plasma Kallikrein Ki
Where a name gives a salt, the structure may show the parent alone.
Parameter: pKi
// pKi here means minus log10 of the molar concentration (mol/L)

Example cases with answers are listed next.
stdin: Hello, I am looking for reported pKi with purified human plasma kallikrein (Homo sapiens (Human), UniProt P03952) for COC(=O)Nc1ccc2c(c1)C(=O)NCC/C=C/C[C@H](N1CCC(c3c(F)ccc(Cl)c3F)=CC1=O)c1cc-2ccn1 [Example 216, TFA salt] . Could you help?
stdout: 6.67

stdin: Hello, I am looking for reported pKi with purified human plasma kallikrein (Homo sapiens (Human), UniProt P03952) for C[C@@H]1CCC[C@H](N2CCC(c3cc(Cl)ccc3-n3cncn3)=CC2=O)c2cc(ccn2)-c2ccccc2NC1=O [Example 71, TFA salt] . Could you help?
stdout: 7.22

***
stdin: Hello, I am looking for reported pKi with purified human plasma kallikrein (Homo sapiens (Human), UniProt P03952) for C[C@@H]1CCC[C@H](N2CCC(c3c(F)ccc(Cl)c3F)=CC2=O)c2cc(ccn2)-c2ccc(NC3O[C@H](CO)[C@@H](O)[C@@H](O)[C@H]3NC(=O)OC(C)(C)C)cc2NC1=O (stereo partly drawn) [Example 132] . Could you help?
stdout: 7.76

stdin: Hello, I am looking for reported pKi with purified human plasma kallikrein (Homo sapiens (Human), UniProt P03952) for C[C@@H]1CCC[C@H](N2CCC(c3c(C#N)ccc(C#N)c3F)=CC2=O)c2cc(ccn2)-c2cc(F)c(F)cc2NC1=O [Example 210, TFA salt] . Could you help?
stdout: 5.92

stdin: Hello, I am looking for reported pKi with purified human plasma kallikrein (Homo sapiens (Human), UniProt P03952) for COC(=O)Nc1ccc2c(c1)NC(=O)[C@H](C)CCC[C@H](N1CCC(c3nccc(Cl)c3F)=CC1=O)c1cc-2ccn1 [Example 10, TFA salt] . Could you help?
stdout: 9.00
